Test system: K-562 leukemia
EXPERIMENT_SUMMARY: NCI-60 one-dose screen, 48 h
APPLIED_CONDITIONS: 10 µM unless noted
This is part of a sample that, as a whole, favours compounds with a hit. Of some 83,000 tested, about 20% had one in any assay. Calls of active or inactive are those of the source. Rule for the calls: active = growth percent below 10; inactive = the rest.
Choose the fitting class; nothing outside true for active, false for inactive is accepted.

The examples below pair each entry with its known result.
RECORD_SMILES | CLASS_ASSIGNMENT
CCOC(=O)/C=C1\S/C(=N\Nc2cc(=O)[nH]c3ccc(Br)cc23)N(c2ccccc2)C1=O | false
COC(=O)c1sccc1-c1cc(O)c(C(=O)Nc2ccccc2)s1 | false
O=S(=O)(Nc1ccc2ccccc2c1)c1ccc(-c2cnc(C3CC3)o2)cc1 | false
NC(=O)c1ccccc1OCC(=O)Nc1ccc(Cl)c(Cl)c1 | false
CN(C)Cc1cc(C(C)(C)C)cc(Br)c1O | false

-- ask What did this assay record as the result for CS(=O)(=O)Nc1cc(-c2ccc3ncnc(Nc4ccc(OCc5ccccn5)c(Cl)c4)c3c2)cnc1Cl ?
-- reply false

-- ask Field entry: COc1cc(/C=C/C(=O)c2cccc(-n3cc(-c4ccc(Cl)cc4)[nH]c3=O)c2)ccc1O
-- reply false

-- ask Continue with COc1cc(OC)c2c(=O)c3c(CC=C(C)C)cc(OC)c(O)c3oc2c1
-- reply false

-- ask For CN1CCOCCN(C)Cc2ccc3ccc(cc3c2)CN(C)CCOCCN(C)Cc2ccc3ccc(cc3c2)C1 then?
-- reply true

-- ask Consider next the compound O=c1cc(CNc2cc(F)cc(F)c2)c2ccc(I)cc2[nH]1 in the same way.
-- reply true
